Cited source for all entries: the supplement of paper PMC4466140

Target: AgRvs167
Assay: SPOT peptide array binding signal intensity (averaged, normalized) (arbitrary units (background-subtracted, floor 0; scale differs between SH3 domains)); higher = stronger binding of the SH3 domain to the peptide
Assign class by SPOT peptide array binding signal intensity: not lower than 6 means yes (1); lower than 6 means no (0).

[
  {
    "binder": "IAPIPMPKPNPTHIS",
    "classification": "no (0)"
  },
  {
    "binder": "NRLRKRLNLPSEISI",
    "classification": "no (0)"
  },
  {
    "binder": "GDHPKGPPPPPPPDE",
    "classification": "no (0)"
  },
  {
    "binder": "IHTRRPSSTSQYLIR",
    "classification": "no (0)"
  },
  {
    "binder": "AIPPPVPNRPGGTTN",
    "classification": "yes (1)"
  },
  {
    "binder": "MKRSRPSRSIPYTTP",
    "classification": "no (0)"
  },
  {
    "binder": "RVTRKRPREPKSTND",
    "classification": "no (0)"
  },
  {
    "binder": "HAPPLPPTAPPPPSL",
    "classification": "no (0)"
  },
  {
    "binder": "RNNRPVPPPPPMRTT",
    "classification": "yes (1)"
  },
  {
    "binder": "IKKRNKIRLPSGSPE",
    "classification": "no (0)"
  },
  {
    "binder": "VFQFQMPTTPISTKM",
    "classification": "no (0)"
  },
  {
    "binder": "SSSSSPPPLPTRRDH",
    "classification": "yes (1)"
  }
]
